Molecular target: SALL4 ZFC4 WT (HT-SELEX) (Mus musculus, UniProt Q8BX22 870-940)
Sequence: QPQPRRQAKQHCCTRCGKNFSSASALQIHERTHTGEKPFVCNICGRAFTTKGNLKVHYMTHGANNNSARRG
Test: HT-SELEX; high values mean tight binding
Conditions: protein: recombinant; vector His6-GST; dsDNA, one strand shown
Label class 1 when binding signal is strictly below 0.8 fold-change vs cycle 0; at or above that, label class 0.

As a guide, the following entries are already answered.
Query: Strictly below 0.8 fold-change vs cycle 0: is that where binding signal of GAGATC sits?
Reply: class 0

Query: Lab log: compare recorded binding signal with 0.8 fold-change vs cycle 0; is it strictly lower for AGTGGA ?
Reply: class 0

Query: Answer whether the sequence CCGTAG has binding signal strictly less than 0.8 fold-change vs cycle 0
Reply: class 1

Query: Input CGAATA ; condition: binding signal strictly below 0.8 fold-change vs cycle 0. Does it hold?
Reply: class 0

Query: Is binding signal strictly under 0.8 fold-change vs cycle 0 for the entry ATCGTG ?
Reply: class 1

Query: Confirm or reject: binding signal of AAAAAC lies strictly below 0.8 fold-change vs cycle 0
Reply: class 0

Query: Problem: For the sequence ATATTC , is binding signal under 0.8 fold-change vs cycle 0?
Reply: class 0

Query: Please state whether binding signal is below 0.8 fold-change vs cycle 0 for ACGTCC
Reply: class 1

Query: Please indicate whether the reported binding signal of TAACTA is strictly below 0.8 fold-change vs cycle 0.
Reply: class 0

Query: Below 0.8 fold-change vs cycle 0 on binding signal? Entry GACACA
Reply: class 1

More entries:
Query: Strictly below 0.8 fold-change vs cycle 0 in binding signal? GGAAAC
Reply: class 1

Query: Strictly below 0.8 fold-change vs cycle 0 in binding signal? GAAAGC
Reply: class 1

Query: I'd appreciate it if you could check whether ATATCA has binding signal smaller than 0.8 fold-change vs cycle 0.
Reply: class 0

Query: Determine if GGAGGA shows binding signal strictly lower than 0.8 fold-change vs cycle 0.
Reply: class 1

Query: Consider ACATGT . Does its binding signal lie strictly below 0.8 fold-change vs cycle 0?
Reply: class 0

Query: Strictly below 0.8 fold-change vs cycle 0 in binding signal? GCTTGA
Reply: class 1

Query: Would you kindly verify if binding signal of AGCTTA is strictly less than 0.8 fold-change vs cycle 0?
Reply: class 0
